B1: HDV Ribozyme (parent)
chain: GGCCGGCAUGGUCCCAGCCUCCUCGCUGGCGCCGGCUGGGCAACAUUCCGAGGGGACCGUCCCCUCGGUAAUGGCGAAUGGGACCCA

variants of: B1; test: self-cleavage, relative activity (ratio to wild type); higher = more cleavage; co-transcriptional
Provide the reported self-cleavage of each item.
Would you mind answering with just the numeric figure?

Bench note: what self-cleavage did C63U A70U show?
0.848

Bench note: what self-cleavage did G17U U20G show?
0

Bench note: what self-cleavage did G17A U79C show?
0.514

Bench note: what self-cleavage did G52A C86U show?
0.816

Bench note: what self-cleavage did G1A C64A show?
0.131

Bench note: what self-cleavage did U37C A51C show?
0.966

Bench note: what self-cleavage did A42C G54U show?
0.312

Bench note: what self-cleavage did C57A U79C show?
0.429

Bench note: what self-cleavage did C22A C84U show?
0.256

Bench note: what self-cleavage did C33A G50U show?
0.295

Bench note: what self-cleavage did U60A G68U show?
1.11

Bench note: what self-cleavage did G35A A70G show?
0.491

Bench note: what self-cleavage did G54A C62A show?
0.917

Bench note: what self-cleavage did G34U C64G show?
0.277

Bench note: what self-cleavage did U9A G73A show?
0.425

Bench note: what self-cleavage did U27A G50U show?
0.99

Bench note: what self-cleavage did G6C G25C show?
0

Bench note: what self-cleavage did C15G C75G show?
0.192

Bench note: what self-cleavage did G53U C85U show?
0.969

Bench note: what self-cleavage did C36A A71U show?
0.309

Bench note: what self-cleavage did G1A A43G show?
0.0875

Bench note: what self-cleavage did G11A C64U show?
0.249

Bench note: what self-cleavage did U23C C33A show?
0.0378

Bench note: what self-cleavage did C32A A83U show?
0

Bench note: what self-cleavage did C21U G39U show?
0.604

Bench note: what self-cleavage did C4G C48U show?
0.306

Bench note: what self-cleavage did C49U G76A show?
1.08

Bench note: what self-cleavage did G17U A42C show?
0.125

Bench note: what self-cleavage did C15G G39A show?
0.341

Bench note: what self-cleavage did C33A G53U show?
0.277

Bench note: what self-cleavage did C36A A78G show?
0.0652

Bench note: what self-cleavage did G54A C64U show?
0.696

Bench note: what self-cleavage did C18G U72C show?
0

Bench note: what self-cleavage did G35C C63A show?
0.259

Bench note: what self-cleavage did C4U C58G show?
0.615

Bench note: what self-cleavage did C32U G53U show?
0.811

Bench note: what self-cleavage did C21G A77C show?
0.0536

Bench note: what self-cleavage did G53U A87C show?
0.984

Bench note: what self-cleavage did G10U G54U show?
0.865

Bench note: what self-cleavage did A43U C44U show?
1.07

Bench note: what self-cleavage did A56G C62A show?
0.467

Bench note: what self-cleavage did C41G G54A show?
0.831

Bench note: what self-cleavage did C32G G81C show?
0.0773

Bench note: what self-cleavage did G29A G39A show?
0.0863

Bench note: what self-cleavage did G29A A43U show?
0.0252

Bench note: what self-cleavage did G1C U37C show?
0.128
